# target_of_assay: FPR1 (Homo sapiens, UniProt P21462)
# Sequence (P21462 whole entry): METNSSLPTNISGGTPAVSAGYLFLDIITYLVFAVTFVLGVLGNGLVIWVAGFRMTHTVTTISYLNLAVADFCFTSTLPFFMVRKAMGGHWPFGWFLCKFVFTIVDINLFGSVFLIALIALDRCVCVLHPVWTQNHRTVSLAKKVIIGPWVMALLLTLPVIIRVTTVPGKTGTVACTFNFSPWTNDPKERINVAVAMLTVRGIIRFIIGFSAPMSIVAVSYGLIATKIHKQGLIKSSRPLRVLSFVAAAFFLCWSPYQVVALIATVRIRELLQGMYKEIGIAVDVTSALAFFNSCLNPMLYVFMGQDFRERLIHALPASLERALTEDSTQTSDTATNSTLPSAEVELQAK
# method_notes: FPR1 β-arrestin recruitment assay (PathHunter CHO-FPR1, antagonistic mode)
# condition_set: CHO FPR1 β-arrestin cells; antagonistic assay vs reference agonist fMLF at its EC80; 60 min preincubation
# Method: 2.2 FPR1 β-Arrestin Recruitment Assay The PathHunter CHO—FPR1 (DiscoverX) assay was performed according to the manufacturer's protocol. […] For antagonistic assay, 5 μl of compound solution or buffer was added to the cells with a final DMSO concentration of 0.5% (v/v). […] Reaction was developed for 20 min at room temperature and chemiluminescence was measured with a Victor2V (Perkin Elmer) luminescence reader.
Where a SMILES comes first, the peptide text is derived from it. Bridges are numbered along the chain shown (N, C = ends). [ ]: non-standard residue; d: D form.
quantity_measured: IC50 (nM)
Answer with a number only, understood to be in nM.

Below are worked cases with known answers.
CC[C@H](C)[C@@H]1NC(=O)[C@H]([C@@H](C)O)NC(=O)[C@H](Cc2c[nH]c3ccccc23)NC(=O)[C@@H](C)NC(=O)CNC(=O)[C@H](Cc2c[nH]cn2)NC(=O)[C@@H]2CSSC[C@H](NC1=O)C(=O)N[C@@H](Cc1ccc(O)cc1)C(=O)N[C@@H](CCC(=O)O)C(=O)N[C@@H](CCCCN)C(=O)N1CCC[C@@H]1C(=O)N[C@@H](CCC(=O)O)C(=O)N[C@@H](Cc1ccc(O)cc1)C(=O)N[C@@H](Cc1c[nH]cn1)C(=O)N[C@@H](CCCCN)C(=O)N2 [Ex. 4] (cyclo(YHKCHG[dA]WTICYEK[dP]E); disulfide 4-11); 77
CC[C@H](C)[C@@H]1NC(=O)[C@H]([C@@H](C)O)NC(=O)[C@H](Cc2c[nH]c3ccccc23)NC(=O)[C@H]2CCCN2C(=O)CNC(=O)[C@H](Cc2c[nH]cn2)NC(=O)[C@@H]2CSSC[C@H](NC1=O)C(=O)N[C@@H](Cc1ccc(O)cc1)C(=O)N[C@@H](CCC(=O)O)C(=O)N[C@@H](CCCCN)C(=O)N1CCC[C@@H]1C(=O)N1CCC[C@H]1C(=O)N[C@@H](Cc1ccc(O)cc1)C(=O)N[C@@H](Cc1c[nH]cn1)C(=O)N[C@@H](C)C(=O)N2 [compound 30] (cyclo(YHACHG[dP]WTICYEK[dP]P); disulfide 4-11); 189
CC[C@H](C)[C@@H]1NC(=O)[C@H]([C@@H](C)O)NC(=O)[C@H](Cc2c[nH]c3ccccc23)NC(=O)[C@H]2CCCN2C(=O)CNC(=O)[C@H](Cc2c[nH]cn2)NC(=O)[C@@H]2CSSC[C@H](NC1=O)C(=O)N[C@@H](Cc1ccc(O)cc1)C(=O)N[C@@H](CCC(=O)O)C(=O)N[C@@H](CCCCN)C(=O)N1CCC[C@@H]1C(=O)N1CCC[C@H]1C(=O)N[C@@H](CC(=O)O)C(=O)N[C@@H](Cc1c[nH]cn1)C(=O)N[C@@H](CCCCN)C(=O)N2 [compound 66] (cyclo(DHKCHG[dP]WTICYEK[dP]P); disulfide 4-11); 177

Turning now to a further record.
q: For the record CC[C@H](C)[C@@H]1NC(=O)[C@H]([C@@H](C)O)NC(=O)[C@H](Cc2c[nH]c3ccccc23)NC(=O)[C@H]2CCCN2C(=O)CNC(=O)[C@H](Cc2c[nH]c3ccccc23)NC(=O)[C@@H]2CSSC[C@H](NC1=O)C(=O)N[C@@H](Cc1ccc(O)cc1)C(=O)N[C@@H](CCC(=O)O)C(=O)N[C@@H](CCCCN)C(=O)N[C@H](C)C(=O)N1CCC[C@H]1C(=O)N[C@@H](Cc1ccc(O)cc1)C(=O)N[C@@H](Cc1c[nH]cn1)C(=O)N[C@@H](CCCCN)C(=O)N2 [compound 42] (cyclo(YHKCWG[dP]WTICYEK[dA]P); disulfide 4-11) , what value of IC50 is listed for FPR1 (Homo sapiens, UniProt P21462)?
a: 126
